Where do the numbers come from? From patent US9890147B2.

Target: BRD4 (BD1) (Homo sapiens, UniProt O60885)
Construct: with relatively long constructs also being possible, preferably amino acids 44-168
Assay: Binding assay BRD4/acetylated peptide H4 (TR-FRET protein-protein interaction assay)
property: IC50 (nM)

CNC(=O)N1N=C(c2ccc(N3CCOCC3=O)cc2)c2cc(OC)c(OC)cc2C[C@@H]1C :: 120

I = CNC(=O)N1N=C(c2ccc(N3CCNCC3)cc2)c2cc(Cl)c(OC(F)(F)F)cc2CC1C (racemic)
II = CNC(=O)N1N=C(c2ccc(N3CCCCC3)cc2)c2cc(OC)c(OC)cc2CC1C (racemic)
III = CCC1Cc2cc(OC)c(OC)cc2C(c2ccc(N3CCN(S(C)(=O)=O)CC3)cc2)=NN1C(=O)NC (racemic)
IV = CNC(=O)N1N=C(c2ccc(N3CCC(O)CC3)cc2)c2cc(OC)c(OC)cc2C[C@H]1C
Arrange the 4 entries by IC50 so the values rise. Answer format: the labels, ordered as requested.
II, I, III, IV
(II: 40 nM, I: 300 nM, III: 840 nM, IV: 9870 nM)

P = CNC(=O)N1N=C(c2ccc(-c3sc(C)nc3C)cc2)c2cc(OC)c(OC)cc2CC1C (racemic)
Q = CNC(=O)N1N=C(c2ccc(-c3cnccc3F)cc2)c2cc(OC)c(OC)cc2CC1C (racemic)
R = CNC(=O)N1N=C(c2ccc(-n3nc(-c4ccccn4)cc3C3CC3)cc2)c2cc(OC)ccc2C[C@@H]1C
Arrange the 3 entries by IC50 so the values rise. Answer format: the labels, ordered as requested.
R, P, Q
(R: 10 nM, P: 30 nM, Q: 50 nM)

A = CNC(=O)N1N=C(c2ccc(N3CCN(C)C(=O)C3)cc2)c2cc(OC)c(OC)cc2CC1C (racemic)
B = CNC(=O)N1N=C(c2ccc(-c3ccccc3C#N)cc2)c2cc(OC)c(OC)cc2CC1C (racemic)
C = CNC(=O)N1N=C(c2ccc(-c3ccc(C(F)(F)F)nc3)cc2)c2cc(OC)c(OC)cc2C[C@H]1C
D = CNC(=O)N1N=C(c2ccc(N3CCN(C)CC3)cc2)c2cc(OC)c(OC(F)(F)F)cc2CC1C (racemic)
Arrange the 4 entries by IC50 so the values rise. Answer format: the labels, ordered as requested.
A, B, D, C
(A: 30 nM, B: 50 nM, D: 370 nM, C: 18900 nM)
